Measured target: DNA topoisomerase 2-alpha (Homo sapiens) (UniProt P11388)
Sequence (P11388 whole entry): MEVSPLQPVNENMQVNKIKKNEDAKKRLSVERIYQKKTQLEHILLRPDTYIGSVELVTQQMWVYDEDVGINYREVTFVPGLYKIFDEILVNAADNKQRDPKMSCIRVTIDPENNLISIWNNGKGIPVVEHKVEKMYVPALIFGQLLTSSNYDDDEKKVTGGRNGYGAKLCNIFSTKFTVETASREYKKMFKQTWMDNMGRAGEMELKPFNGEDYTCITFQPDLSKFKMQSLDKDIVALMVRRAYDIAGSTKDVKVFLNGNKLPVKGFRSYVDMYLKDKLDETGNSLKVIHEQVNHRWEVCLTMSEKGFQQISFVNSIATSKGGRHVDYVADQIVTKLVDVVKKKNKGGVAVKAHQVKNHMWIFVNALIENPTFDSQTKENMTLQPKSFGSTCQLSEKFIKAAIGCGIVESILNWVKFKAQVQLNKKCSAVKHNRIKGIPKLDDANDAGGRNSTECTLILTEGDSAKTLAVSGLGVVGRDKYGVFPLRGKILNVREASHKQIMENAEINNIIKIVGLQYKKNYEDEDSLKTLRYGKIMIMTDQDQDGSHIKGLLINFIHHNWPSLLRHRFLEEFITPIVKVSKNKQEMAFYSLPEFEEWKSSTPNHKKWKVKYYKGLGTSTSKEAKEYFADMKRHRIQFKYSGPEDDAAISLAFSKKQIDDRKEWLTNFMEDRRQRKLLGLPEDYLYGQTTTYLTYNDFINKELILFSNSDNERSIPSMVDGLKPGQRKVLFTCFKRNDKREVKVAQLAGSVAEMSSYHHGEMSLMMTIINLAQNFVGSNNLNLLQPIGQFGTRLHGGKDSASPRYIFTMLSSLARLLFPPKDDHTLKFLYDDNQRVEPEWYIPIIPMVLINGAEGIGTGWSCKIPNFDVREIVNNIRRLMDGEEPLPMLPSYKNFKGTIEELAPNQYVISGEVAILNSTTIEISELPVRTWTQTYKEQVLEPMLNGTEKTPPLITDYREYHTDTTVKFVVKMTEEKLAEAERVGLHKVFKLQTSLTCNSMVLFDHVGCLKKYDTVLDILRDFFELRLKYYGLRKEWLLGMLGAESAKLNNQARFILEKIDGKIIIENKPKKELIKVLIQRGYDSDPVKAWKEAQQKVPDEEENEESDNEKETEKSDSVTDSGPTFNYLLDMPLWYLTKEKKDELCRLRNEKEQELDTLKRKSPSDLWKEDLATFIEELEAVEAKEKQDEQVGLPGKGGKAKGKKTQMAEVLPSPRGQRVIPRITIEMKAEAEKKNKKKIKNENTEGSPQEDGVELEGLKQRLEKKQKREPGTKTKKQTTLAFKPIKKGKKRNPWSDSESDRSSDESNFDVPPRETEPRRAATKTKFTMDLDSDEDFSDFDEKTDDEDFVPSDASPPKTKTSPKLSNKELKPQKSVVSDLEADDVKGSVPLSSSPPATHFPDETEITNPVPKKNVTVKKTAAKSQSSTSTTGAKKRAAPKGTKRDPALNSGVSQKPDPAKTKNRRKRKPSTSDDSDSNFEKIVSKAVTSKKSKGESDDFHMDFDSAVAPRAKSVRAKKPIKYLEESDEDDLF
Test details: Inhibition of recombinant human DNA topoisomerase 2alpha assessed as relaxation of supercoiled DNA pBR322 at 100 uM after 30 mins using ethidium bromide staining by agarose gel electrophoresis
Readout name: inhibition (%)
Numbers only, in %.

Known inhibition results, listed for orientation:
# Record smiles, Measured target, Value
rows = [
    ("Oc1ccc(-c2cc(-c3cccc(O)c3)nc(-c3cccc(O)c3)c2)cc1", "DNA topoisomerase 2-alpha (Homo sapiens) (UniProt P11388)", 100),
    ("Oc1ccc(-c2cc(-c3ccccc3O)cc(-c3ccccc3O)n2)cc1", "DNA topoisomerase 2-alpha (Homo sapiens) (UniProt P11388)", 77.6),
    ("Oc1cccc(-c2cc(-c3ccccc3O)cc(-c3cccc(O)c3)n2)c1", "DNA topoisomerase 2-alpha (Homo sapiens) (UniProt P11388)", 100),
    ("Oc1cccc(-c2cc(-c3cccc(O)c3)nc(-c3cccc(O)c3)c2)c1", "DNA topoisomerase 2-alpha (Homo sapiens) (UniProt P11388)", 100),
    ("Oc1ccc(-c2cc(-c3ccccc3O)nc(-c3ccccc3O)c2)cc1", "DNA topoisomerase 2-alpha (Homo sapiens) (UniProt P11388)", 46.9),
    ("Oc1cccc(-c2cc(-c3cccc(O)c3)nc(-c3ccccc3O)c2)c1", "DNA topoisomerase 2-alpha (Homo sapiens) (UniProt P11388)", 11.3),
]

Hi team, please reply with inhibition for each item in this list.
1. Oc1ccc(-c2cc(-c3cccc(O)c3)nc(-c3ccccc3O)c2)cc1
2. Oc1ccc(-c2cc(-c3ccc(O)cc3)nc(-c3ccccc3O)c2)cc1

**Result**
80.6
44

====

Measured target: DNA topoisomerase 2-alpha (Homo sapiens) (UniProt P11388)
Test details: Inhibition of recombinant human DNA topoisomerase 2alpha assessed as relaxation of supercoiled DNA pBR322 at 20 uM after 30 mins using ethidium bromide staining by agarose gel electrophoresis
Readout name: inhibition (%)
One number for each entry, in %.

Known inhibition results, listed for orientation:
# Record smiles, inhibition [%]
measured = [
    ("Oc1ccc(-c2cc(-c3cccc(O)c3)nc(-c3cccc(O)c3)c2)cc1", 9.6),
    ("Oc1cccc(-c2cc(-c3ccccc3O)nc(-c3ccccc3O)c2)c1", 7.1),
    ("Oc1ccc(-c2cc(-c3ccc(O)cc3)nc(-c3ccc(O)cc3)c2)cc1", 7.9),
]

Hi team, please reply with inhibition for each item in this list.
1. Oc1ccc(-c2cc(-c3cccc(O)c3)cc(-c3ccccc3O)n2)cc1
2. Oc1ccc(-c2cc(-c3ccccc3O)cc(-c3ccc(O)cc3)n2)cc1
3. Oc1ccc(-c2cc(-c3ccccc3O)nc(-c3ccccc3O)c2)cc1
4. Oc1ccc(-c2cc(-c3ccc(O)cc3)nc(-c3ccccc3O)c2)cc1
5. Oc1cccc(-c2cc(-c3ccccc3O)cc(-c3ccccc3O)n2)c1
6. Oc1ccc(-c2cc(-c3cccc(O)c3)nc(-c3ccccc3O)c2)cc1
7. Oc1ccc(-c2cc(-c3ccccc3O)cc(-c3ccccc3O)n2)cc1

**Result**
1. 1.6
2. 5.4
3. 2.9
4. 1.8
5. 6.6
6. 38.5
7. 21.3

====

Provide the reported pIC50 of each item.
Tested on: HEK293
Test details: Cytotoxicity against HEK293 cells after 4 days by CCK-8 assay
Format: cell-based
Protocol conditions: Homo sapiens, HEK293, 96 h
Give bare numbers, as −log10 of the molar value.

# Compound, Readout name, Value
measured = [
    ("Oc1ccc(-c2cc(-c3ccc(O)cc3)nc(-c3ccc(O)cc3)c2)cc1", "pIC50", 6.10),
]

Hi team, please reply with pIC50 for each item in this list.
1. Oc1ccc(-c2cc(-c3ccccc3O)cc(-c3cccc(O)c3)n2)cc1
2. Oc1cccc(-c2cc(-c3cccc(O)c3)nc(-c3cccc(O)c3)c2)c1
3. Oc1ccccc1-c1cc(-c2ccccc2O)nc(-c2ccccc2O)c1
4. Oc1cccc(-c2cc(-c3ccccc3O)cc(-c3cccc(O)c3)n2)c1
5. Oc1ccc(-c2cc(-c3ccc(O)cc3)nc(-c3ccccc3O)c2)cc1
6. CC[C@@]1(O)C(=O)OCc2c1cc1n(c2=O)Cc2cc3ccccc3nc2-1
7. Oc1ccc(-c2cc(-c3cccc(O)c3)nc(-c3ccccc3O)c2)cc1

**Result**
1: 5.25; 2: 6.13; 3: 6.85; 4: 6.89; 5: 4.58; 6: 6.55; 7: 5.13

====

Measured target: DNA topoisomerase 1 (Homo sapiens) (UniProt P11387)
Sequence (P11387 whole entry): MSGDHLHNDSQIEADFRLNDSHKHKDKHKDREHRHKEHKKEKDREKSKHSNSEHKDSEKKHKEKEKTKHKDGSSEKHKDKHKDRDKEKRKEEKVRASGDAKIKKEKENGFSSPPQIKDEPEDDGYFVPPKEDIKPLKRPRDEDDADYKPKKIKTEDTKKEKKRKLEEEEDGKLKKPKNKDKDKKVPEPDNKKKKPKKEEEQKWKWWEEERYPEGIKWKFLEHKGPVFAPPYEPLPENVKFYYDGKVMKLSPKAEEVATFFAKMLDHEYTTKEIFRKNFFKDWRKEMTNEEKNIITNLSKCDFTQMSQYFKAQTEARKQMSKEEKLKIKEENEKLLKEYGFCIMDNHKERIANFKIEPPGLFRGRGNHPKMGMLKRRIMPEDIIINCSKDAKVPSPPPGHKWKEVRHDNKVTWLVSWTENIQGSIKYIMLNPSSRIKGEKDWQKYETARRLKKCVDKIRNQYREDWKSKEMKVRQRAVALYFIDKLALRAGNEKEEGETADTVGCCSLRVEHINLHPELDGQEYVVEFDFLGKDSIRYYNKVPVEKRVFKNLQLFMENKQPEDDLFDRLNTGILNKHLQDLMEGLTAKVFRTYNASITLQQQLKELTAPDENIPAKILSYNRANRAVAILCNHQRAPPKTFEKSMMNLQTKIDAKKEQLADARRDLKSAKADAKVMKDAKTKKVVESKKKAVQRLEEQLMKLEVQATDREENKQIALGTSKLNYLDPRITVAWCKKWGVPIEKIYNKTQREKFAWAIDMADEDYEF
Test details: Inhibition of recombinant human DNA topoisomerase 1 assessed as relaxation of supercoiled DNA pBR322 at 100 uM after 30 mins using ethidium bromide staining by agarose gel electrophoresis
Provide the reported inhibition of each item.
Answers are plain numbers, in %.

Known inhibition results, listed for orientation:
# Record smiles, Display unit, Value
records = [
    ("Oc1ccc(-c2cc(-c3ccccc3O)nc(-c3ccccc3O)c2)cc1", "%", 3.7),
    ("Oc1ccc(-c2cc(-c3cccc(O)c3)cc(-c3ccccc3O)n2)cc1", "%", 8.4),
    ("Oc1ccc(-c2cc(-c3cccc(O)c3)cc(-c3cccc(O)c3)n2)cc1", "%", 0),
    ("Oc1ccc(-c2cc(-c3ccc(O)cc3)nc(-c3ccc(O)cc3)c2)cc1", "%", 3.8),
    ("Oc1ccc(-c2cc(-c3cccc(O)c3)cc(-c3ccc(O)cc3)n2)cc1", "%", 0),
]

Hi team, please reply with inhibition for each item in this list.
1. Oc1ccc(-c2cc(-c3ccc(O)cc3)nc(-c3ccccc3O)c2)cc1
2. Oc1cccc(-c2cc(-c3ccccc3O)nc(-c3ccccc3O)c2)c1
3. Oc1cccc(-c2cc(-c3cccc(O)c3)nc(-c3cccc(O)c3)c2)c1

**Result**
1. 0
2. 4.9
3. 0

====

Measured target: UniProt P11388
Test details: Inhibition of recombinant human DNA topoisomerase 2alpha assessed as relaxation of supercoiled DNA pBR322 at 100 uM after 30 mins using ethidium bromide staining by agarose gel electrophoresis
// label = YES if inhibition is not less than 80%, otherwise NO

Reference set, count: 3
# Record smiles, Measured target, Class assignment
measured = [
    ("Oc1ccc(-c2cc(-c3cccc(O)c3)cc(-c3ccc(O)cc3)n2)cc1", "UniProt P11388", "YES"),
    ("Oc1ccc(-c2cc(-c3cccc(O)c3)cc(-c3ccccc3O)n2)cc1", "UniProt P11388", "NO"),
    ("Oc1ccc(-c2cc(-c3ccccc3O)cc(-c3ccc(O)cc3)n2)cc1", "UniProt P11388", "YES"),
]

Turning now to a further molecule:
**Query** Check if inhibition >= 80% (inclusive). Item: `Oc1cccc(-c2cc(-c3ccccc3O)nc(-c3ccccc3O)c2)c1`
**Result** YES

====

Measured target: DNA topoisomerase 1 (Homo sapiens)
Test details: Inhibition of recombinant human DNA topoisomerase 1 assessed as relaxation of supercoiled DNA pBR322 at 100 uM after 30 mins using ethidium bromide staining by agarose gel electrophoresis
Provide the reported inhibition of each item.
Answers are plain numbers, in %.

Hi team, please reply with inhibition for each item in this list.
1. Oc1ccc(-c2cc(-c3cccc(O)c3)nc(-c3ccccc3O)c2)cc1
2. Oc1ccc(-c2cc(-c3ccccc3O)cc(-c3cccc(O)c3)n2)cc1
3. Oc1ccccc1-c1cc(-c2ccccc2O)nc(-c2ccccc2O)c1
4. Oc1ccc(-c2cc(-c3ccc(O)cc3)nc(-c3cccc(O)c3)c2)cc1
5. Oc1cccc(-c2cc(-c3ccccc3O)cc(-c3ccccc3O)n2)c1
6. Oc1ccc(-c2cc(-c3cccc(O)c3)nc(-c3cccc(O)c3)c2)cc1

**Result**
1: 1.5; 2: 0; 3: 0; 4: 0; 5: 0; 6: 0

Hi team, please reply with inhibition for each item in this list.
1. Oc1cccc(-c2cc(-c3cccc(O)c3)nc(-c3ccccc3O)c2)c1
2. Oc1ccc(-c2cc(-c3ccccc3O)cc(-c3ccccc3O)n2)cc1
3. Oc1ccc(-c2cc(-c3ccccc3O)cc(-c3ccc(O)cc3)n2)cc1
4. Oc1cccc(-c2cc(-c3ccccc3O)cc(-c3cccc(O)c3)n2)c1

**Result**
1: 1.9; 2: 0.3; 3: 0.4; 4: 0

====

Measured target: DNA topoisomerase 2-alpha (Homo sapiens)
Test details: Inhibition of recombinant human DNA topoisomerase 2alpha assessed as relaxation of supercoiled DNA pBR322 at 100 uM after 30 mins using ethidium bromide staining by agarose gel electrophoresis
Readout name: inhibition (%)
Give bare numbers, in %.

Known inhibition results, listed for orientation:
# Record smiles, inhibition (%)
measured = [
    ("Oc1ccccc1-c1cc(-c2ccccc2O)nc(-c2ccccc2O)c1", 95.1),
    ("Oc1ccc(-c2cc(-c3ccc(O)cc3)nc(-c3cccc(O)c3)c2)cc1", 100),
    ("Oc1ccc(-c2cc(-c3cccc(O)c3)cc(-c3cccc(O)c3)n2)cc1", 100),
    ("Oc1cccc(-c2cc(-c3ccccc3O)cc(-c3ccccc3O)n2)c1", 87.9),
]

Field: next compound
**Query** Request - read-out inhibition | tested on DNA topoisomerase 2-alpha (Homo sapiens) | compound `Oc1ccc(-c2cc(-c3ccccc3O)cc(-c3cccc(O)c3)n2)cc1`
**Result** 92.2

Value source: ChEMBL document CHEMBL3352155
